Values were extracted from patent US20190144550A1.

study.system: T1, human EGFRvIII expressed on cells (human, UniProt P00533 298-1210)
T1 construct: the F98-npEGFRvIII line was obtained from ATCC and its construct is not described; also called F98-npEGFRvIII; F98-EGFRvIII
assay.comment: flow cytometry, F98-npEGFRvIII cells
For each record, write down the corresponding % positive.
Give the value, in units of %, as a plain number.

INPUT: Determine its reported % positive: 46E10 (antibody, V domains shown, Hybridoma supernatant (AlivaMab mouse); captured/detected via mouse Fc) VH: QVTLKESGPVLVKPTETLTLTCTVSGFSLSNARMGVSWIRQPPGKALEWLAHIFSTDEKSIRRSLRSRLTLSKDTSKSQVVLIMTNMDPVDTATYYCARDSSNYEGYFDYWGQGTLVTVSS VL: EVVMTQSPPNLSVSPGERATLSCRASQSVTSNFAWYQQRPGQSPRLLLYGASTRATGVPGRFSGSGSGTENILTISSLQSEDFAVYFCQQYKDWPFTFGPGSKVDIK
OUTPUT: 98.7

INPUT: Determine its reported % positive: 21E7 (antibody, V domains shown, Hybridoma supernatant (AlivaMab mouse); captured/detected via mouse Fc) VH: QVTLEESGPVLVKPTETLTLTCTVSGFSLSNARMGVSWIRQPPGKAPEWFAHIFSTDEKSLRLSLRSRLTLSKDTSKSQVVLTMTNMDPVDTATYYCARDSSNYEGYFDYWGQGTLVTVSS VL: DVVLTQSPATLSVSPGERATLSCRASQSVNSNLAWYQQNPGQAPRLLIFGSSTRATGIPASFSGSGSGTEFTLTINSLQSEHSAVYYCQQYNDWPFTFGPGTKVDIK
OUTPUT: 98.5

INPUT: Determine its reported % positive: 49B11 (antibody, V domains shown, Hybridoma supernatant (AlivaMab mouse); captured/detected via mouse Fc) VH: QVTLKESGPVLVKPTETLTLTCTVSGFSLSNVRMGVSWIRQPPGKALEWFAHIFSSDEKSIRRSLRSRLTLSKDTSKSQVVLTMTNMDPVDTATYYCARDSSNYEGYFDYWGQGTLVTVSS VL: EMEVTQSPATLSVSPGERATLSCRASQNIGSDLAWYQQQSGQAPRLLISGASTRATGVPTRFSGSGSGTDFTLTITSLQSEDFAVYYCQQYNDWPFTFGPGTKVDIK
OUTPUT: 98.5

INPUT: Determine its reported % positive: 12H6 (antibody, V domains shown, Hybridoma supernatant (AlivaMab mouse); captured/detected via mouse Fc) VH: QVTLKESGPVLVKPTETLTLTCTVSGFSLSNARMGVSWIRQPPGKALEWLAHIFSTDEKSIRRSLRSRLTLSKDTSKSQVVLTMTNMDPVDTATYYCARDSSNYEGYFDYWGQGTLVTVSS VL: EVVMTQSPATLSVSPGERATLSCRASQGVSSNFAWYQQRPGQSPRLLLYGASTRATGVPGRFSGSGSGTENILTISSLQSEDFAIYFCQQYKDWPFTFGPGSKVDIK
OUTPUT: 98.3

INPUT: Determine its reported % positive: 42G9 (antibody, V domains shown, Hybridoma supernatant (AlivaMab mouse); captured/detected via mouse Fc; also called mAb 42G9) VH: QVTLKESGPVLLKPTETLTLTCTVSGFSLSNPRMGVSWIRQPPGKALEWFAHIFSTDEKSLKLSLRSRLTLSKDTSKSQVVLTMTNMAPVDSATYYCARDSSNYEGYFDFWGQGTLVTVSS VL: EVVLTQSPATLSVSPGERATLSCRASQSVRSNLAWYQQKSGQAPRLLIYGSTIRATGVPARFSGSGSGTEFTLTISSLQSEDFAVYYCQQYSDWPFTFGPGTKVDIK
OUTPUT: 98.5
